assayInfo: Example 18 Part 2: multiple dose PK (20 mg QID) of 3,4-DAP and 3-N-acetyl metabolite in slow and fast acetylators
Assay type: in vivo, human
cond: both sexes, human, plasma, oral, 20 mg, Days 1-4, 20 mg QID, slow acetylators; read-out: plasma mean Cmax values, range
Protocol: The following method was used to analyze concentrations of 3,4-diaminopyridine and N-(4-aminopyridin-3-yl)acetamide in plasma and urine samples for the experiments in Example 18. […] Samples were analyzed by using HPLC with positive ion electrospray MS/MS detection. […] The LC/MS/MS method was validated to quantify 3,4-DAP in human plasma in the linear calibration range of 0.500 to 500 ng/mL and from 1.00 to 1000 ng/mL for the 3-N-acetyl metabolite. […]
attributeMeasured: Cmax

Q: Give its Cmax value. Item: Nc1ccncc1N
Result: 67.1 to 97.1 ng/mL
